# Test Target: Melanocortin receptor 4 (Homo sapiens)
# Protocol: Displacement of [125I]NDP-alpha-MSH from human MC4 receptor transfected in HEK293 cells
pKi: −log10 of the molar value.
Measure Name: pKi

>>> df
                                   compound  measure_name  measured_result
0  CCCCCCC1(N2CCN(C(=O)[C@@H](Cc3ccc(Cl)cc3)NC(=O)CC3NCc4ccccc43)CC2)CCN(C)CC1 (some centres undefined)           pKi             7.16
1  CC(C)CC1(N2CCN(C(=O)[C@@H](Cc3ccc(Cl)cc3)NC(=O)CC3NCc4ccccc43)CC2)CCCCC1 (some centres undefined)           pKi             7.33

[1] CC(C)CC1(N2CCN(C(=O)[C@@H](Cc3ccc(Cl)cc3)NC(=O)CC3NCc4ccccc43)CC2)CCSCC1 (some centres undefined)
[2] CC(C)C1(N2CCN(C(=O)[C@@H](Cc3ccc(Cl)cc3)NC(=O)CC3NCc4ccccc43)CC2)CCN(C)CC1 (some centres undefined)
Given the two records 1 and 2 , choose the one whose pKi value is lower. Your answer should be the label attached to the chosen record.
1
(1: 7.16, 2: 7.38)

###

# Test Target: Melanocortin receptor 4 (Homo sapiens, UniProt P32245)
# Sequence (P32245 whole entry): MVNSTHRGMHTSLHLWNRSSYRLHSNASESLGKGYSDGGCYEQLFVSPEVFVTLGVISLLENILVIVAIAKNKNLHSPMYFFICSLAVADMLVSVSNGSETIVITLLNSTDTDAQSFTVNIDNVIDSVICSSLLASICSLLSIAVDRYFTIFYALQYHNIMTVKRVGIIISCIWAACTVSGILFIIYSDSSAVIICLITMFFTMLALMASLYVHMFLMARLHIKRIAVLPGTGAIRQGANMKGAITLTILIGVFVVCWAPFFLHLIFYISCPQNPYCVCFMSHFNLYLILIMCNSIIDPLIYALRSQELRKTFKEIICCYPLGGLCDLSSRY
# Protocol: Displacement of [125I]NDP-alpha-MSH from human MC4 receptor transfected in HEK293 cells
Measure Name: Ki (µM)

In [3]: df
Out[3]:
                                   compound  measure_name  measured_result
0  CCN1CCC(CC(C)C)(N2CCN(C(=O)[C@@H](Cc3ccc(Cl)cc3)NC(=O)CC3NCc4ccccc43)CC2)CC1 (stereo partly drawn)            Ki           0.0156

[P] CC(C)CC1(N2CCN(C(=O)[C@@H](Cc3ccc(Cl)cc3)NC(=O)CC3NCc4ccccc43)CC2)CCOCC1 (stereo partly drawn)
[Q] CN1CCC(CC2CCCCC2)(N2CCN(C(=O)[C@@H](Cc3ccc(Cl)cc3)NC(=O)CC3NCc4ccccc43)CC2)CC1 (stereo partly drawn)
[R] CC(C)CC1(N2CCN(C(=O)[C@@H](Cc3ccc(Cl)cc3)NC(=O)CC3NCc4ccccc43)CC2)CCN(C(C)C)CC1 (stereo partly drawn)
Rank items: key Ki, increasing. Please list the labels in the order you were asked to rank them.
Q, R, P
(Q: 0.0068 µM, R: 0.0129 µM, P: 0.0314 µM)

###

# Test Target: Melanocortin receptor 4 (Homo sapiens, UniProt P32245)
# Protocol: Displacement of [125I]NDP-alpha-MSH from human MC4 receptor transfected in HEK293 cells
Measure Name: Ki (nM)

Here's what some known entries look like.
>>> print(df.to_string())
                                   compound  measured_result
0  CC(C)CC1(N2CCN(C(=O)[C@@H](Cc3ccc(Cl)cc3)NC(=O)CC3NCc4ccccc43)CC2)CCN(S(C)(=O)=O)CC1 (some centres undefined)             27.3
1  CN1CCC(c2ccccc2)(N2CCN(C(=O)[C@@H](Cc3ccc(Cl)cc3)NC(=O)CC3NCc4ccccc43)CC2)CC1 (some centres undefined)              215

[a] CC(=O)N1CCC(CC(C)C)(N2CCN(C(=O)[C@@H](Cc3ccc(Cl)cc3)NC(=O)CC3NCc4ccccc43)CC2)CC1 (some centres undefined)
[b] CC(C)CC1(N2CCN(C(=O)[C@@H](Cc3ccc(Cl)cc3)NC(=O)CC3NCc4ccccc43)CC2)CCS(=O)(=O)CC1 (some centres undefined)
Which gives the smaller Ki number: a or b ? Kindly give the label for the entry you pick.
a
(a: 37.5 nM, b: 75.8 nM)

[A] CCC1(N2CCN(C(=O)[C@@H](Cc3ccc(Cl)cc3)NC(=O)CC3NCc4ccccc43)CC2)CCN(C)CC1 (some centres undefined)
[B] CN1CCC(Cc2ccccc2)(N2CCN(C(=O)[C@@H](Cc3ccc(Cl)cc3)NC(=O)CC3NCc4ccccc43)CC2)CC1 (some centres undefined)
A or B : whose Ki is greater? State the label of the item chosen.
A
(A: 370 nM, B: 43.9 nM)

[P] CC(C)CC1(N2CCN(C(=O)[C@@H](Cc3ccc(Cl)cc3)NC(=O)CC3NCc4ccccc43)CC2)CCN(C(=O)C(C)C)CC1 (some centres undefined)
[Q] CCN(CC)CC(CC1CCCCC1)N1CCN(C(=O)[C@@H](Cc2ccc(Cl)cc2)NC(=O)CC2NCc3ccccc32)CC1 (some centres undefined)
P or Q : whose Ki is greater? Mark your answer with the label of the selected entry.
P
(P: 101 nM, Q: 5 nM)

Reference source: ChEMBL document CHEMBL1138939
